Where do these numbers come from? They come from the supplement of paper PMC11061612.

- Test system: NCI-H1975 (Lung Adenocarcinoma);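 further: after 72 h of two-drug dosing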
- Experiment description: Bliss excess, mean over the matrix (fraction); higher = more synergy
// reported Bliss excess for each item listed
Keep the answer to the number alone.

The compound Cn1cnc2c(F)c(Nc3ccc(Br)cc3Cl)c(C(=O)NOCCO)cc21 [Selumetinib] + C=CCn1c(=O)c2cnc(Nc3ccc(N4CCN(C)CC4)cc3)nc2n1-c1cccc(C(C)(C)O)n1 [AZD1775] (first compound max 10 µM, partner max 1 µM) showed Bliss excess equal to -0.0318

Next:
The compound Cc1c2c(nn1C)CSCc1cc(n(C)n1)CSc1cc(c3ccccc3c1)OCCCc1c(C(=O)O)n(C)c3c-2c(Cl)ccc13 [AZD5991] + Cn1cnc2c(F)c(Nc3ccc(Br)cc3Cl)c(C(=O)NOCCO)cc21 [Selumetinib] (first compound max 1 µM, 7x7, partner max 3 µM) showed Bliss excess equal to 0.0208
